# Tested on: U373 (glioblastoma-astrocytoma)
# Test summary: CIMA assay, cell viability, U373
# Condition notes: U373, 1 ug/mL; listed as 174-13-14-3
Property measured: Average cell viability (%)

1. CC/C=C\C/C=C\C/C=C\C/C=C\C/C=C\CCCC(=O)OCC(COC1OC(CO)C(O)C(O)C1O)OC(=O)CCCCCCCCCCCCCCC (stereo not shown) : 85

---

# Test system: MDA-MB
# Condition notes: MDA-MB, sample at 100 ug/mL
Listing of recorded MDA-MB AVG by entry.
Property measured: MDA-MB AVG

1. CC/C=C\C/C=C\C/C=C\CCCCCCCC(=O)O [Compound 19, α-linolenic acid] : 0.26
2. CC/C=C\C/C=C\C/C=C\C/C=C\C/C=C\CCCC(=O)OCC(O)COC1OC(CO)C(O)C(O)C1O (centres unmarked) [Compound 13, lyso-MGDG C20:5] : 0.28
3. CC/C=C\C/C=C\C/C=C\C/C=C\CCC(=O)OC(COC(=O)CCCCCCC/C=C\C/C=C\C/C=C\CC)COC1OC(CO)C(O)C(O)C1O (centres unmarked) [Compound 14, MGDG C18:3/C16:4] : 0.20
4. CCCCC/C=C\C/C=C\CCCCCCCC(=O)O [Compound 20, linoleic acid] : 0.16
5. CC/C=C\C/C=C\C/C=C\C/C=C\C/C=C\CCCC(=O)OCC(COC1OC(CO)C(O)C(O)C1O)OC(=O)CCC/C=C\C/C=C\C/C=C\C/C=C\C/C=C\CC (centres unmarked) [Compound 7, MGDG C20:5/C20:5] : 0.27
